# System: 883617-216-R-J1-PDC complex spheroid viability
# test-description: Anticancer human tumor 883617-216-R-J1-PDC patient-derived bladder carcinoma cell line growth inhibition [POLQ]
# assay-context: second compound 0.316 µM; first compound 0.1 µM; active compounds read low
# Procedure: Multicellular complex tumor spheroid response to Polymerase (POL) inhibitors (novobiocin, ART-558, RP6685) in combination with a variety of drugs and investigational agents in selected tumor cell lines The POL inhibitors (novobiocin, ART-558, and RP6685) were evaluated both individually and in combination with standard of care and investigational anticancer small molecules within a complex spheroid model of solid tumors. . […]
For each of the molecules below, state its viability, T/C.
Give bare numbers, in %.

# annotated cases, reported viability, T/C shown
query: What value of viability, T/C has been recorded for this entry: COc1cccc2c1C(=O)c1c(O)c3c(c(O)c1C2=O)CC(O)(C(=O)CO)CC3OC1CC(N)C(O)C(C)O1 (stereo unspecified) + COC1C(OC(N)=O)C(O)C(Oc2ccc3c(O)c(NC(=O)c4ccc(O)c(CC=C(C)C)c4)c(=O)oc3c2C)OC1(C)C
result: 58.2

query: Given CCc1c2c(nc3ccc(O)cc13)-c1cc3c(c(=O)n1C2)COC(=O)[C@]3(O)CC + Nc1ccc(C#CCN(C(=O)Cc2ncc(C(F)(F)F)cc2C(F)(F)F)c2ccc(F)cc2)nn1 , state its recorded viability, T/C.
result: 51

query: Please look up its viability, T/C: Nc1ccn(C2OC(CO)C(O)C2(F)F)c(=O)n1 (stereo unspecified) + Nc1ccc(C#CCN(C(=O)Cc2ncc(C(F)(F)F)cc2C(F)(F)F)c2ccc(F)cc2)nn1
result: 38.7

query: Query (molecule): Cn1ncnc1[C@H]1c2n[nH]c(=O)c3cc(F)cc(c23)N[C@@H]1c1ccc(F)cc1 + Cc1cccc(N(C)C(=O)C2C(O)CCN2c2nc(C)cc(C(F)(F)F)c2C#N)c1 ; field requested: viability, T/C
result: 64.2

query: What value of viability, T/C has been reported for the following molecule? C=CC(=O)N1CCN(c2nc(=O)n(-c3c(C)ccnc3C(C)C)c3nc(-c4c(O)cccc4F)c(F)cc23)C(C)C1 (stereo unspecified) + Cc1cccc(N(C)C(=O)C2C(O)CCN2c2nc(C)cc(C(F)(F)F)c2C#N)c1
result: 62

query: Field request: viability, T/C | item: Cn1ncnc1[C@H]1c2n[nH]c(=O)c3cc(F)cc(c23)N[C@@H]1c1ccc(F)cc1 + COC1C(OC(N)=O)C(O)C(Oc2ccc3c(O)c(NC(=O)c4ccc(O)c(CC=C(C)C)c4)c(=O)oc3c2C)OC1(C)C
result: 64

Can you give me viability, T/C for all of these, one by one?
1. CC1COCCN1c1cc(-c2ccnn2C)c2ccnc(-c3ccn[nH]3)c2n1 (stereo unspecified) + COC1C(OC(N)=O)C(O)C(Oc2ccc3c(O)c(NC(=O)c4ccc(O)c(CC=C(C)C)c4)c(=O)oc3c2C)OC1(C)C
2. COc1cc2cc(C(=O)CCC(=O)O)sc2cc1OC + Nc1ccc(C#CCN(C(=O)Cc2ncc(C(F)(F)F)cc2C(F)(F)F)c2ccc(F)cc2)nn1

result:
[51, 101]

Fill in viability, T/C for each of the 3 molecules listed.
1. COc1ccc([C@@H](O)c2cc(-c3ncnc4cc(N5CCOCC5)ccc34)c(F)cc2Cl)nn1 + Nc1ccc(C#CCN(C(=O)Cc2ncc(C(F)(F)F)cc2C(F)(F)F)c2ccc(F)cc2)nn1
2. CCc1c2c(nc3ccc(O)cc13)-c1cc3c(c(=O)n1C2)COC(=O)[C@]3(O)CC + Cc1cccc(N(C)C(=O)C2C(O)CCN2c2nc(C)cc(C(F)(F)F)c2C#N)c1
3. C=CCn1c(=O)c2cnc(Nc3ccc(N4CCN(C)CC4)cc3)nc2n1-c1cccc(C(C)(C)O)n1 + Cc1cccc(N(C)C(=O)C2C(O)CCN2c2nc(C)cc(C(F)(F)F)c2C#N)c1

result:
1. 99.7
2. 49.6
3. 98.8

---

# System: 883617-216-R-J1-PDC complex spheroid viability
# test-description: Anticancer human tumor 883617-216-R-J1-PDC cell line growth inhibition [POLQ];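 further: spheroids exposed to compounds for seven days before readout; 100% = DMSO vehicle control viability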
# assay-context: second compound 0.0316 µM; first compound 10 µM; active compounds read low
reported-metric: viability, T/C

Look over these answered cases.
query: I am curious: what viability, T/C value has been reported for COc1cccc2c1C(=O)c1c(O)c3c(c(O)c1C2=O)CC(O)(C(=O)CO)CC3OC1CC(N)C(O)C(C)O1 (stereo unspecified) + COC1C(OC(N)=O)C(O)C(Oc2ccc3c(O)c(NC(=O)c4ccc(O)c(CC=C(C)C)c4)c(=O)oc3c2C)OC1(C)C ?
result: 0.26%

query: Could you tell me which viability, T/C is on file for COc1cc(C2c3cc4c(cc3C(OC3OC5COC(C)OC5C(O)C3O)C3COC(=O)C23)OCO4)cc(OC)c1O (stereo unspecified) + Nc1ccc(C#CCN(C(=O)Cc2ncc(C(F)(F)F)cc2C(F)(F)F)c2ccc(F)cc2)nn1 ?
result: 60%

query: Value lookup for viability, T/C; key = CCc1cc2c(N3CCc4c(cc(Cn5ccnc5)cc4-c4cn(C)nc4C(F)(F)F)C3=O)ccnc2c(OC)n1 + Nc1ccc(C#CCN(C(=O)Cc2ncc(C(F)(F)F)cc2C(F)(F)F)c2ccc(F)cc2)nn1
result: 48.8%

query: Quick one: viability, T/C of CC1COCCN1c1cc(C2(O)CC3CCC(C2)O3)c2cnn(-c3ccn[nH]3)c2n1 (stereo unspecified) + Cc1cccc(N(C)C(=O)C2C(O)CCN2c2nc(C)cc(C(F)(F)F)c2C#N)c1 ?
result: 23.9%

query: Look up viability, T/C: C=CC(=O)N1CCN(c2nc(=O)n(-c3c(C)ccnc3C(C)C)c3nc(-c4c(O)cccc4F)c(F)cc23)C(C)C1 (stereo unspecified) + Cc1cccc(N(C)C(=O)C2C(O)CCN2c2nc(C)cc(C(F)(F)F)c2C#N)c1
result: 73.4%

Working through the 6 compounds below one at a time, give viability, T/C for each.
1. CC1COCCN1c1cc(C2(O)CC3CCC(C2)O3)c2cnn(-c3ccn[nH]3)c2n1 (stereo unspecified) + Nc1ccc(C#CCN(C(=O)Cc2ncc(C(F)(F)F)cc2C(F)(F)F)c2ccc(F)cc2)nn1
2. O=c1[nH]cc(F)c(=O)[nH]1 + COC1C(OC(N)=O)C(O)C(Oc2ccc3c(O)c(NC(=O)c4ccc(O)c(CC=C(C)C)c4)c(=O)oc3c2C)OC1(C)C
3. CC(C)n1c(=O)n(C)c2cnc3cc(F)c(-c4ccc(OCCCN5CCCCC5)nc4)cc3c21 + COC1C(OC(N)=O)C(O)C(Oc2ccc3c(O)c(NC(=O)c4ccc(O)c(CC=C(C)C)c4)c(=O)oc3c2C)OC1(C)C
4. O=C(c1cc(Cc2n[nH]c(=O)c3ccccc23)ccc1F)N1CCN(C(=O)C2CC2)CC1 + Nc1ccc(C#CCN(C(=O)Cc2ncc(C(F)(F)F)cc2C(F)(F)F)c2ccc(F)cc2)nn1
5. O=c1[nH]cc(F)c(=O)[nH]1 + Cc1cccc(N(C)C(=O)C2C(O)CCN2c2nc(C)cc(C(F)(F)F)c2C#N)c1
6. O=C(Nc1ccc(O)c(NS(=O)(=O)c2ccc(F)cc2)c1)c1ccc(-c2ccccc2)cc1 + Nc1ccc(C#CCN(C(=O)Cc2ncc(C(F)(F)F)cc2C(F)(F)F)c2ccc(F)cc2)nn1

result:
["22.9%", "59.8%", "65.1%", "67.8%", "57.8%", "71%"]

---

For each record, write down the corresponding viability, T/C.
# Tested on: 883617-216-R-J1-PDC complex spheroid viability
# test-description: Anticancer human tumor 883617-216-R-J1-PDC cell line growth inhibition [POLQ];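 further: spheroids exposed to compounds for seven days before readout; 100% = DMSO vehicle control viability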
# assay-context: second compound 1 µM; first compound 3.16 µM; active compounds read low
Give bare numbers, in %.

Example entries begin here.
query: Would you mind telling me what viability, T/C value was observed for C=CC(=O)N1CCN(c2nc(=O)n(-c3c(C)ccnc3C(C)C)c3nc(-c4c(O)cccc4F)c(F)cc23)C(C)C1 (stereo not given) + Cc1cccc(N(C)C(=O)C2C(O)CCN2c2nc(C)cc(C(F)(F)F)c2C#N)c1 ?
result: 90.6

query: Which viability, T/C reading was recorded for the molecule C#Cc1c(F)ccc2cc(O)cc(-c3ncc4c(N5CC6CCC(C5)N6)nc(OCC56CCCN5CC(F)C6)nc4c3F)c12 (stereo not given) + Cc1cccc(N(C)C(=O)C2C(O)CCN2c2nc(C)cc(C(F)(F)F)c2C#N)c1 ?
result: 86.5

query: Request the reported viability, T/C associated with O=C(c1cc(Cc2n[nH]c(=O)c3ccccc23)ccc1F)N1CCN(C(=O)C2CC2)CC1 + Cc1cccc(N(C)C(=O)C2C(O)CCN2c2nc(C)cc(C(F)(F)F)c2C#N)c1
result: 92

I have 6 molecules here; please give me viability, T/C for each one.
1. O=C(Nc1ccc(O)c(NS(=O)(=O)c2ccc(F)cc2)c1)c1ccc(-c2ccccc2)cc1 + Cc1cccc(N(C)C(=O)C2C(O)CCN2c2nc(C)cc(C(F)(F)F)c2C#N)c1
2. COc1cccc2c1C(=O)c1c(O)c3c(c(O)c1C2=O)CC(O)(C(=O)CO)CC3OC1CC(N)C(O)C(C)O1 (stereo not given) + COC1C(OC(N)=O)C(O)C(Oc2ccc3c(O)c(NC(=O)c4ccc(O)c(CC=C(C)C)c4)c(=O)oc3c2C)OC1(C)C
3. O=C(c1cc(Cc2n[nH]c(=O)c3ccccc23)ccc1F)N1CCN(C(=O)C2CC2)CC1 + Nc1ccc(C#CCN(C(=O)Cc2ncc(C(F)(F)F)cc2C(F)(F)F)c2ccc(F)cc2)nn1
4. O=C(c1cc(Cc2n[nH]c(=O)c3ccccc23)ccc1F)N1CCN(C(=O)C2CC2)CC1 + COC1C(OC(N)=O)C(O)C(Oc2ccc3c(O)c(NC(=O)c4ccc(O)c(CC=C(C)C)c4)c(=O)oc3c2C)OC1(C)C
5. CCc1cc2c(N3CCc4c(cc(Cn5ccnc5)cc4-c4cn(C)nc4C(F)(F)F)C3=O)ccnc2c(OC)n1 + Nc1ccc(C#CCN(C(=O)Cc2ncc(C(F)(F)F)cc2C(F)(F)F)c2ccc(F)cc2)nn1
6. CNCc1ccc(-c2[nH]c3cc(F)cc4c3c2CCNC4=O)cc1 + Cc1cccc(N(C)C(=O)C2C(O)CCN2c2nc(C)cc(C(F)(F)F)c2C#N)c1

result:
[88.3, 0.35, 84.8, 96.1, 88.9, 96.9]

query: Which value of viability, T/C has been reported for Nc1ccn(C2OC(CO)C(O)C2(F)F)c(=O)n1 (stereo not given) + COC1C(OC(N)=O)C(O)C(Oc2ccc3c(O)c(NC(=O)c4ccc(O)c(CC=C(C)C)c4)c(=O)oc3c2C)OC1(C)C in the records?
result: 31.1
